system: RARb homodimer (NR concentration 270 nM); test: PBM binding z-score (relative to random genomic background probes); higher = stronger binding; sequences stand for … in GC…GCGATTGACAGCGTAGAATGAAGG
Exercise: for every item that follows, state its recorded PBM binding z-score.
Number, no unit, nothing else.

Task: Param item = `CCTGCTAGGTCAATGGTCATCTAAAGCAGCTCGC` ; retrieve measured PBM binding z-score.
Result: 2.97

Task: Param item = `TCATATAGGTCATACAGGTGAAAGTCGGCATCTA` ; retrieve measured PBM binding z-score.
Result: 3.8

Task: Param item = `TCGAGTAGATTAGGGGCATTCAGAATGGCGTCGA` ; retrieve measured PBM binding z-score.
Result: 0.0337

Task: Param item = `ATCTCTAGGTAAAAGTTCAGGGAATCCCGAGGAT` ; retrieve measured PBM binding z-score.
Result: 2.58

Task: Param item = `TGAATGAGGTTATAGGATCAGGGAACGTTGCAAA` ; retrieve measured PBM binding z-score.
Result: 0.349

Task: Param item = `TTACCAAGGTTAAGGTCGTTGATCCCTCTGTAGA` ; retrieve measured PBM binding z-score.
Result: 2.57

Task: Param item = `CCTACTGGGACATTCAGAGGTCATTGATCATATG` ; retrieve measured PBM binding z-score.
Result: 4.09

Task: Param item = `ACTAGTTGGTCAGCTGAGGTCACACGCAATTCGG` ; retrieve measured PBM binding z-score.
Result: 4.17

Task: Param item = `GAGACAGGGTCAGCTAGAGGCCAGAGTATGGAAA` ; retrieve measured PBM binding z-score.
Result: 3.05

Task: Param item = `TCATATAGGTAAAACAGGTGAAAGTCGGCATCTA` ; retrieve measured PBM binding z-score.
Result: 0.437

Task: Param item = `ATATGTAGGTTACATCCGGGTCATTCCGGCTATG` ; retrieve measured PBM binding z-score.
Result: 2.71
